- experiment-notes: in vivo
- experimental-parameters: female, rhesus monkey, Tissue concentration, Axillary lymph nodes
readout-label: concentration at 3 weeks (ng/g)
One number for each entry, in ng/g.

Cc1cc(/C=C/C#N)cc(C)c1Nc1ccnc(Nc2ccc(C#N)cc2)n1 | 773

Please turn your attention to the following entry.
Req: State the recorded concentration at 3 weeks for this entry: C[C@H]1CO[C@@H]2Cn3cc(C(=O)NCc4ccc(F)cc4F)c(=O)c(O)c3C(=O)N12
Resp: 412

====

- experiment-notes: Extracellular TFV, FTC, CAB and RPV in rectal tissue homogenates
- Format: in vivo, Rhesus macaques
- experimental-parameters: collected after 1 to 3 months of ART
readout-label: Rectal tissues, extracellular drug, median (range)

Field: example entries. Status: answers known.
C[C@H]1CO[C@@H]2Cn3cc(C(=O)NCc4ccc(F)cc4F)c(=O)c(O)c3C(=O)N12 | 0.60 (0.25–2.65) ng/mg of tissue
Nc1nc(=O)n([C@@H]2CS[C@H](CO)O2)cc1F | 1.48 (0.22–2.16) ng/mg of tissue
C[C@H](Cn1cnc2c(N)ncnc21)OCP(=O)(O)O | 0.64 (0.18–0.87) ng/mg of tissue

Kindly consider the entry below.
Req: Any idea what its Rectal tissues, extracellular drug, median (range) is? The molecule is Cc1cc(/C=C/C#N)cc(C)c1Nc1ccnc(Nc2ccc(C#N)cc2)n1
Resp: 0.45 (0.12–1.1) ng/mg of tissue
